Origin of the recorded values: patent US20190106487A1

TARGET OF ASSAY: T1, human IL-1RAcP on 293T/17-FR cells (human, UniProt Q9NPH3 21-570)
T1 sequence (looked up): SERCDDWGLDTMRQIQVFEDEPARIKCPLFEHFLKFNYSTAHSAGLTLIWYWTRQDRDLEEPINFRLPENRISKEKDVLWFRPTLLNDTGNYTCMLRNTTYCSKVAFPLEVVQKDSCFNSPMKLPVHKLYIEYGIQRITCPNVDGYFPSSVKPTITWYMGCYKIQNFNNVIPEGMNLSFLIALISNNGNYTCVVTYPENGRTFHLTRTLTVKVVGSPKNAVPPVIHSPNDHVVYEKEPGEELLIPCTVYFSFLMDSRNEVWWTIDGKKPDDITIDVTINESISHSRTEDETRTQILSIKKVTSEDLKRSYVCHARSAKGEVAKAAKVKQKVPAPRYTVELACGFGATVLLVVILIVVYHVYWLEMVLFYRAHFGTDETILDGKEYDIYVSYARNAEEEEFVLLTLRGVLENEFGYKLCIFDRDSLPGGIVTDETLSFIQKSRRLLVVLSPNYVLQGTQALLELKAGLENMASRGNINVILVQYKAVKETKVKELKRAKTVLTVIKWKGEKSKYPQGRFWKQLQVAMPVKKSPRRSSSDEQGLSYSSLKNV
PROCEDURE DETAILS: cell-based or functional assay
yes (1) means recorded functional reporter gene assay (% inhibition), 1 µg/mL mAb is 80% or above; no (0) means it is below 80%.

{"columns": ["BINDER", "ASSIGNED LABEL"],
 "data": [
  ["P013.S.02.B.G03 (antibody, V domains shown, rabbit monoclonal antibody; also called P013.A.00014.D07) VH: QSVEESGGRLVTPGTPLTLTCTVSGFSLSSYGMIWVRQAPGEGLEWIGFIGRGGATWYASWVKGRFTISKTSTTVDLKITSPTASDTATYFCARDGDSSDYYAFNLWGQGTLVTVSS VL: DVVMTQTPASVSEPVGGTVTIKCQASQNIGSNLAWYQQRSGQPPKLLIYGASTLASGVPSRFSGSGSGTEFTLTISGVQSADAATYFCQCSGYDITGVFPFGGGSEVVVK", "no (0)"],
  ["P013.S.02.B.D02 (antibody, V domains shown, rabbit monoclonal antibody; also called P013.A.00086.F05) VH: QSLEESGGDLVKPGASLKLSCTASGVSFSSAYWMCWVRQAPGKGLEWIACIYAGSSGSTYYASWAKGRFTISKTSSTTVTLQMTSLTAADTATYFCARHAAWFELDLWGPGTLVTVSS VL: ALVMTQTPSPVSAAVGGTVTINCQASQNIASAYLSWYQQKPGQPPKLLIYAASTLTDGVPSRFKGSGSVTEFTLTISGVQSDDAATYYCAGYKSYTDDEFAFGGGTEVVVK", "no (0)"],
  ["P013.S.01.B.A02 (antibody, V domains shown, rabbit monoclonal antibody; also called P013.A.00003.H11) VH: QSVEESGGRLVTPGTPLTLTCTVSGIDLSSYAMGWVRQAPGKGLEYIGVITSSATTYYASWAKGRFTISKTSSTTVDLRVTSLTTEDTATYFCARGGPGYSTNTHYAFDPWGPGTLVTVSS VL: AFEMTQTPSSVSEPVGGTVTIKCQASQSIYIYLSWYQQKPGQRPKLLIYDASKLASGVPSRFSGSGSGTEFTLTISGVQSDDAATYYCQQGATTYNVDNVFGGGTEVVVK", "yes (1)"],
  ["P013.S.01.B.A06 (antibody, V domains shown, rabbit monoclonal antibody; also called P013.A.00133.B12) VH: QSLEESGGRLVTPGTPLTLSCKVSGFSLSSYDMSWVRQTPGKGLEWIGTIYIGGTTAYASWPKGRFTISKTSTTVDLKITSPTKEDTATYFCARLQGANYYNSLALWGQGTLVTVSS VL: DVVMTQTPASVSEPVGGTVTIKCQASQSIYSFLSWYQQKPGQPPKLLIYAASDLESGVPSRFSGSGYGTEFTLTISDLESADAATYYCQCNYIIDYGAFGGGTEVVVK", "yes (1)"],
  ["P013.S.01.B.G02 (antibody, V domains shown, rabbit monoclonal antibody; also called P013.A.00085.B11) VH: QSVEESGGRLVTPGTPLTLTCTVSGFSLSSYYMSWVRQAPGKGLEWIGYIYAAGPITYYATWAKGRFTISKTSTTVDLKITSPTTEDTATYFCVRDGSGSGTYGYNGMDLWGPGTLVTVSS VL: AYDMTQTPASVEAAVGGTVNIKCQASQSISNWLAWYQQKPGQRPKLLIYRASTLASGVSSRFKGSGSGTQFTLTISGVESADAATYYCQQGASTTDVDNVFGGGTEVVVK", "no (0)"],
  ["P013.S.01.B.C03 (antibody, V domains shown, rabbit monoclonal antibody; also called P013.A.00133.D11) VH: QSVEESGGRLVTPGTPLTLTCTVSGIDLSNYAMSWVRQAPGKGLEWIGSVISGGSTYYATWARGRFTISKSSTTVDLKMTSLTTEDTATYFCARGCPGYNGDKYTFDLWGPGTLVTVSS VL: AFEMTQTPSSVSEPVGGTVTIKCQASQSIYNYLSWYQQKPGQRPKLLIYRASTLASGVPSRFKGSGSGTEFTLTISGVESADAATYYCQQGATSYDIENPFGGGTEVVVK", "yes (1)"],
  ["P013.S.01.B.E04 (antibody, V domains shown, rabbit monoclonal antibody; also called P013.A.00109.D07) VH: QSVEESGGRLVTPGTPLTLTCTVSGIDLNSNGINWVRQAPGKGLEWIGYIGAGDITYCASWAKGRFTISKTSSTTVDLKITSLTTEDTATYFCARWGPGALDLWGQGTLVTVSS VL: AQVLTQTASSVSATVGGTVTISCQSSQSVYNNNYLSWYQQKPGQPPKLLIYKASTLASGVPLRFSGSGSGTQFTLTISGVQSDDAATYYCAGFYETTDVGFGGGTEVVVK", "yes (1)"],
  ["P013.S.02.B.A05 (antibody, V domains shown, rabbit monoclonal antibody; also called P013.A.00031.D11) VH: QEQLVESGGGLVQPEGSLTLTCQASGFTFSSYYVICWVRQAPGKGLEWIACIGTGDGLTYYASWAKGRFTISKTSSTTVTLQMTSLTAADTATYFCARDRYATVSGILNLWGPGTLVTVSS VL: DVVMTQTPASVEAAVGGTVTIKCQASQNIYSNCAWYQQKLGQRPKLLIYYVSTLESGVPSRFEGSGYGTEFTLTISDLQSADAATYYCQYTYDSSSSTSWAFGGGTEVVVK", "no (0)"],
  ["P013.S.01.B.H05 (antibody, V domains shown, rabbit monoclonal antibody; also called P013.A.00109.F08) VH: LEQSGGGAEGGLVKPGGSLELCCKASGFSLSNSYWICWVRQAPGKGLEWIGCIYVGSSGSTYYASWVNGRFTLSRDIDQSTGCLQLNSLTAADTAIYYCARDGATSTSGHLFELWGQGTLVTVSS VL: ALVMTQTPSPVSAAVGGTVTINCQASEDIYSNLAWFQQKPGQPPKLLIYRASTLASGVPSRFSGSGSGTEFTLTISGVQSDDAATYYCLGIYTYISADGSLYNAFGGGTEVVVK", "yes (1)"]
]}
